- test system: human glucagon-like peptide-1 receptor (human, UniProt P43220)
- experimental details: cell-based or functional assay
Numbered stars: 1 amine (or outer) side, 2 acyl side, 3 side chain; on linkers, the order of the positions; unused ones are H or OH. Square brackets hold non-standard residues; d marks the D form. Side chains are listed from the residue outwards. Ends that are not written are not given here. γGlu = O=C(O)[C@H](CCC(=O)[*:2])N[*:1]; AEEA = NCCOCCOCC(=O)O; Aib = CC(C)(N)C(=O)O
Measured Activity for human GLP-1R (EC50 nM), cAMP HTRF, listed per entry for reference.
# value in nM; strip the unit string

Consider the reported Activity for human GLP-1R (EC50 nM), cAMP HTRF for these binders:
| binder | endpoint unit | recorded result |
| --- | --- | --- |
| H-Y[Aib]EGTFTSDYSIYLEKEAAKEFVNWLLAGGPSSGAPPPS-NH2 (not fully specified (residue 20); printed as H-YAibEGTFTSDYSIYLEKEAAK(OEG-OEG-yGlu-C18-OH)EFVNWLLAG / GPSSGAPPPS-NH2) [Compound No. 27] | nM | 0.12 |
| Y[Aib]EGTFTSDYSIYLDKIAAK([AEEA-AEEA-γGlu-C18‑OH])EFVNWLLAGGPSSGAPPPS-NH2 [Compound No. 60] | nM | 0.2 |

Suppose we examine the binder H-Y[Aib]EGTFTSDYSIYLEKIAAQEFVNWLLAGGPSSGAPPPSK-NH2 (not fully specified (residue 40); printed as H-YAibEGTFTSDYSIYLEKIAAQEFVNWLLAGGPSSGAPPPSK / (OEG-OEG-yGlu-C18-OH)-NH2) [Compound No. 28] ; what Activity for human GLP-1R (EC50 nM), cAMP HTRF value has been reported? 0.074

Suppose we examine the binder H-Y[Aib]EGTFTSDYSIYLEKEAAKEFVNWLLAGGPSSGAPPPSK-NH2 (not fully specified (residue 40); printed as H-YAibEGTFTSDYSIYLEKEAAKEFVNWLLAGGPSSGAPPPSK / (OEG-OEG-yGlu-C18-OH)-NH2) [Compound No. 25] ; what Activity for human GLP-1R (EC50 nM), cAMP HTRF value has been reported? 0.031

Suppose we examine the binder Y[Aib]EGTFTSDYSIYLEKIAAQEFVNWLLAGGPSSGAPPPSK([AEEA-AEEA-γGlu-C20‑OH])-NH2 [Compound No. 74] ; what Activity for human GLP-1R (EC50 nM), cAMP HTRF value has been reported? 0.068

Suppose we examine the binder H-Y[Aib]EGTFTSDYSIYLEKIAAQEFVNWLLAGKPSSGAPPPS-NH2 (not fully specified (residue 30); printed as H-YAibEGTFTSDYSIYLEKIAAQEFVNWLLAGK(OEG-OEG-yGlu-C18-OH) / PSSGAPPPS-NH2) [Compound No. 29] ; what Activity for human GLP-1R (EC50 nM), cAMP HTRF value has been reported? 0.24

Values compiled from patent US20220168396A1.
